Sourced from ChEMBL document CHEMBL1155117

- protocol.details: Inhibition of soybean sterol C24-methyltransferase 1
- Design: species or system Glycine max
reported.endpoint: pKi
Scale for pKi: -log10 of concentration given in mol/L; no unit attached.

(Q) Reported pKi, molecule CC(C)=C(C)CC[C@@H](C)[C@H]1CC[C@@]2(C)[C@@H]3CC[C@H]4C(C)(C)[C@@H](O)CC[C@@]45C[C@@]35CC[C@]12C : ____
(A) 4.60

---

- protocol.details: Inhibition of sunflower sterol C24-methyltransferase 1
- Design: species or system Helianthus annuus
reported.endpoint: pKi
Scale for pKi: -log10 of concentration given in mol/L; no unit attached.

(Q) Reported pKi, molecule CC(C)=C(C)CC[C@@H](C)[C@H]1CC[C@@]2(C)[C@@H]3CC[C@H]4C(C)(C)[C@@H](O)CC[C@@]45C[C@@]35CC[C@]12C [CYCLOBRANOL] : ____
(A) 4.00
